Origin of measurements: ChEMBL document CHEMBL3885861

# Organism: Rattus norvegicus
# ASSAY_METHOD_TEXT: Open TG-GATES - Regimen: Single
# Assay type: toxicity, organism-based, Sprague-Dawley
# Parameters: regimen Single, gender Male, age 6 weeks
# CONDITION_SUMMARY: in vivo, po, 0 mg/kg, 3 h, tissue Plasma, route gavage, dose level Control
MEASURED_METRIC: ALT (IU/L)
One number for each entry, in IU/L.

Please review the following examples before continuing.
CSc1ccc2c(c1)N(CCC1CCCCN1C)c1ccccc1S2 (configuration not stated)
37.2
Cn1c(=O)c2[nH]cnc2n(C)c1=O.O
43.6
Clc1ccccc1CN1CCc2sccc2C1
37.4

Go through the items and report each one's ALT.
1. CC(=O)Oc1ccccc1C(=O)O
2. CN(C)CCC=C1c2ccccc2CCc2ccccc21

### Response
[34.8, 48.2]

----------
# Species: Rattus norvegicus
# ASSAY_METHOD_TEXT: Open TG-GATES - Regimen: Single
# Assay type: toxicity, organism-based, Sprague-Dawley
# Parameters: regimen Single, gender Male, age 6 weeks
# CONDITION_SUMMARY: in vivo, po, 300 mg/kg, 24 h, tissue Plasma, route gavage, dose level Middle
For each entry below, report its DBIL value.
One number for each entry, in mg/dL.

Please review the following examples before continuing.
C[C@H](CS)C(=O)N1CCC[C@H]1C(=O)O
0.02
CCc1cc(C(N)=S)ccn1 [ETHIONAMIDE]
0.028
O=C(O)c1cn(C2CC2)c2cc(N3CCNCC3)c(F)cc2c1=O
0.058
O=C(O)c1cc(/N=N/c2ccc(S(=O)(=O)Nc3ccccn3)cc2)ccc1O
0.088

Could you now look at the following molecule, please?
### Prompt Quote DBIL reported for Clc1ccccc1CN1CCc2sccc2C1 please.
### Response 0.078

----------
# Species on record: Rattus norvegicus
# ASSAY_METHOD_TEXT: Open TG-GATES - Regimen: Daily Repeat
# Format: toxicity, organism-based, Sprague-Dawley
# Design: regimen Daily Repeat, gender Male, age 6 weeks
# CONDITION_SUMMARY: in vivo, po, 0 mg/kg, 72 h, tissue Plasma, route gavage, dose level Control, time 3 day
MEASURED_METRIC: TC (mg/dL)
Numbers only, in mg/dL.

Please review the following examples before continuing.
COc1ccc2c(c1)c(CC(=O)O)c(C)n2C(=O)c1ccc(Cl)cc1
74.2
CN(C)CCC=C1c2ccccc2CCc2ccccc21
83.2
CO[C@H]1/C=C/O[C@@]2(C)Oc3c(C)c(O)c4c(O)c(c(/C=N/N5CCN(C)CC5)c(O)c4c3C2=O)NC(=O)/C(C)=C\C=C\[C@H](C)[C@H](O)[C@@H](C)[C@@H](O)[C@@H](C)[C@H](OC(C)=O)[C@@H]1C
83.8
Clc1ccccc1CN1CCc2sccc2C1
69.8
CSc1ccc2c(c1)N(CCC1CCCCN1C)c1ccccc1S2 (centres undefined)
87
C[C@H](CS)C(=O)N1CCC[C@H]1C(=O)O
70.6
CCCC(CCC)C(=O)O
71.6
NC(=O)N/N=C/c1ccc([N+](=O)[O-])o1
92.4
O=C(O)c1cc(/N=N/c2ccc(S(=O)(=O)Nc3ccccn3)cc2)ccc1O
75.6
Cn1c(=O)c2[nH]cnc2n(C)c1=O.O
85

Go through the items and report each one's TC.
1. O=C(O)c1cn(C2CC2)c2cc(N3CCNCC3)c(F)cc2c1=O
2. COc1ccc(Cc2nccc3cc(OC)c(OC)cc23)cc1OC
3. CC(=O)Oc1ccccc1C(=O)O
4. CCc1cc(C(N)=S)ccn1 [ETHIONAMIDE]

### Response
84
72
74.6
80.6
